Reference source for all entries: PubChem BioAssay (NCI)

- Test system: HCT-15 colon
- METHOD NOTES: NCI tumour cell line growth inhibition, 48 h
Each record here notes measured TGI.

Example entries begin here.
compound=COC(=O)C(=Cc1cc(OC)ccc1OC)C(=O)OC measured_result="> 100 µM"
compound=COc1cc([C@H]2Oc3cc(O)c4c(=O)cc(-c5ccccc5)oc4c3O[C@@H]2CO)ccc1O measured_result="> 100 µM"
compound=O=C(Cc1ccc(/C=C/C(=O)c2ncc[nH]2)cc1)Nc1cc(F)c(F)c(F)c1 measured_result="8.25 µM"
compound=Nc1c2c(nc3cc(F)c(F)cc13)CCC2 measured_result="> 100 µM"
compound="CC(C)(C)[Si](C)(C)OCC1OC(n2ccc(N)nc2=O)C(O[Si](C)(C)C(C)(C)C)C1O[Si](C)(C)C(C)(C)C (configuration not stated)" measured_result="5.25 µM"

So for S=C1NC2(CCCCCC2)NN1c1ccccc1 , the logged TGI turned out to be > 100 µM

Field TGI (entry NNC(=S)N/N=C(\CC1OC(=O)c2ccccc21)c1ccccc1O (configuration not stated) ) reads > 100 µM
